Target: Platelet-activating factor receptor (Mus musculus)
Test: Dose required to inhibit PAF-induced mortality by 50% in mice
Type: functional
Details: Mus sp.
MEASURED METRIC: ID50

MOLECULE	MEASURED TARGET	MEASURED METRIC	RESULT
Cc1ncccc1C(CO)N1CCN(C(=O)CC(c2ccccc2)c2ccccc2)CC1 (stereo unspecified)	Platelet-activating factor receptor (Mus musculus)	ID50	> 3 mg/kg

Observed ID50 on Platelet-activating factor receptor (Mus musculus) for Cc1ncccc1C(C#N)N1CCN(C(=O)CSC(c2ccccc2)c2ccccc2)CC1 (stereo unspecified) , please.
> 3 mg/kg

// next record Cc1ncccc1C(C#N)N1CCN(C(=O)CC(NC(=O)c2cccnc2)c2ccccc2)CC1 (stereo unspecified)
0.41 mg/kg

###

Listing of entries alongside the reported ID50.
Biological target: UniProt:Q62035
Experiment: Dose required to inhibit PAF-induced mortality by 50% in mice
Assay type: functional
Details: Mus sp.
# value in mg/kg; strip the unit string

COMPOUND	MEASURED TARGET	ID50 [mg/kg]
Cc1ncccc1C(C#N)N1CCN(C(=O)CC(Nc2ccccc2)c2ccccc2)CC1 (centres undefined)	UniProt:Q62035	0.27
Cc1ncccc1C(C#N)N1CCN(C(=O)CC(O)(c2ccccc2)C(F)(F)F)CC1 (centres undefined)	UniProt:Q62035	0.44
COC(=O)N(Cc1ccccc1)C(CC(=O)N1CCN(C(C#N)c2cccnc2C)CC1)c1ccccc1 (centres undefined)	UniProt:Q62035	3
CNC(CC(=O)N1CCN(C(C#N)c2cccnc2C)CC1)c1ccccc1 (centres undefined)	UniProt:Q62035	3

# lookup: ID50 of Cc1ncccc1C(C#N)N1CCN(C(=O)CC(O)(c2ccccc2)c2ccccc2)CC1 (centres undefined)
0.69

###

Listing of entries alongside the reported pIC50.
Test: Inhibition of PAF-induced platelet aggregation
To interpret pIC50, take it as minus log10 of a concentration measured in moles per litre.

Sample records with pIC50:
COMPOUND	NUMERIC RESULT
N#CC(c1cccnc1)N1CCN(C(=O)CCNC(c2ccccc2)c2ccccc2)CC1 (stereo not drawn)	7.28
N#CC(c1cccnc1)N1CCN(C(=O)CC(c2ccccc2)c2ccccc2)CC1 (stereo not drawn)	7.70

Read the next record carefully.
# lookup: pIC50 of N#CC(c1cccnc1)N1CCN(C(=O)CNC(c2ccccc2)c2ccccc2)CC1 (stereo not drawn)
8.04

###

Listing of entries alongside the reported ID50.
Biological target: Platelet-activating factor receptor (Mus musculus)
Assay: Dose required to inhibit PAF-induced mortality by 50% in mice
Assay type: functional
Conditions: Mus sp.
# value in mg/kg; strip the unit string

Sample records with ID50:
COMPOUND	ID50 (mg/kg)
N#CC(c1cccnc1)N1CCN(C(=O)CNC(c2ccccc2)c2ccccc2)CC1 (stereo not drawn)	5.9
COC(=O)NC(CC(=O)N1CCN(C(C#N)c2cccnc2C)CC1)c1ccc(C(F)(F)F)cc1 (stereo not drawn)	1.6
Cc1ncccc1C(C#N)N1CCN(C(=O)CN(C=O)C(c2ccccc2)c2ccccc2)CC1 (stereo not drawn)	1.5
Cc1ncccc1C(C#N)N1CCN(C(=O)CC(NS(C)(=O)=O)c2ccccc2)CC1 (stereo not drawn)	1
Cc1ncccc1C(C#N)N1CCN(C(=O)CNC(c2ccccc2)c2ccccc2)CC1 (stereo not drawn)	0.3
COC(=O)N(C)C(CC(=O)N1CCN(C(C#N)c2cccnc2C)CC1)c1ccccc1 (stereo not drawn)	2

Observed ID50 on Platelet-activating factor receptor (Mus musculus) for C#CCNC(CC(=O)N1CCN(C(C#N)c2cccnc2C)CC1)c1ccccc1 (stereo not drawn) , please.
3

// next record Cc1ncccc1C(C#N)N1CCN(C(=O)CC(O)(c2ccccc2)c2cccnc2)CC1 (stereo not drawn)
1

// next record Cc1ncccc1C(C#N)N1CCN(C(=O)CCNC(c2ccccc2)c2ccccc2)CC1 (stereo not drawn)
0.62

###

Target: UniProt Q62035
Assay: Dose required to inhibit PAF-induced mortality by 50% in mice
Assay type: functional
Conditions: Mus sp.
Listing of entries alongside the reported ID50.

Sample records with ID50:
MOLECULE	ID50
Cc1ncccc1C(C#N)N1CCN(C(=O)CN(C(c2ccccc2)c2ccccc2)S(C)(=O)=O)CC1 (centres undefined)	> 3 mg/kg
Cc1ncccc1C(C#N)N1CCN(C(=O)CC(C)c2ccccc2)CC1 (centres undefined)	> 3 mg/kg
Cc1ncccc1C(C#N)N1CCN(C(=O)CCC(c2ccccc2)c2ccccc2)CC1 (centres undefined)	> 3 mg/kg
Cc1ncccc1C(C#N)N1CCN(C(=O)CC(NC(=O)OCc2ccccc2)c2ccccc2)CC1 (centres undefined)	> 3 mg/kg
Cc1ncccc1C(C#N)N1CCN(C(=O)/C=C(\c2ccccc2)C(F)(F)F)CC1 (centres undefined)	> 3 mg/kg
Cc1ncccc1C(C#N)N1CCN(C(=O)CC(c2ccccc2)N2CCCS2(=O)=O)CC1 (centres undefined)	> 3 mg/kg

Observed ID50 on UniProt Q62035 for Cc1ncccc1C(C#N)N1CCN(C(=O)CNC2c3ccccc3-c3ccccc32)CC1 (centres undefined) , please.
> 3 mg/kg

// next record Cc1ncccc1C(C#N)N1CCN(C(=O)/C=C(/c2ccccc2)C(F)(F)F)CC1 (centres undefined)
> 3 mg/kg

// next record Cc1ncccc1C(C#N)N1CCN(C(=O)COC(c2ccccc2)c2ccccc2)CC1 (centres undefined)
> 3 mg/kg

// next record Cc1ncccc1C(C#N)N1CCN(C(=O)CC(NC(N)=O)c2ccccc2)CC1 (centres undefined)
> 3 mg/kg

// next record CCOC(=O)NC(CC(=O)N1CCN(C(C#N)c2cccnc2C)CC1)c1ccccc1 (centres undefined)
0.23 mg/kg

###

Target: Platelet-activating factor receptor (Mus musculus)
Experiment: Dose required to inhibit PAF-induced mortality by 50% in mice
Format: functional
Settings: Mus sp.
MEASURED METRIC: ID50

# lookup: ID50 of Cc1ncccc1C(C#N)N1CCN(C(=O)C=C(c2ccccc2)c2ccccc2)CC1 (stereo not drawn)
2.2 mg/kg

// next record Cc1ncccc1C(C#N)N1CCN(C(=O)CON=C(c2ccccc2)c2ccccc2)CC1 (stereo not drawn)
> 3 mg/kg

// next record Cc1ncccc1C(C#N)N1CCN(C(=O)CC(c2ccccc2)n2cccc2)CC1 (stereo not drawn)
1 mg/kg

###

Listing of entries alongside the reported ID50.
Biological target: Platelet-activating factor receptor (Mus musculus) (UniProt Q62035)
Sequence (Q62035 whole entry): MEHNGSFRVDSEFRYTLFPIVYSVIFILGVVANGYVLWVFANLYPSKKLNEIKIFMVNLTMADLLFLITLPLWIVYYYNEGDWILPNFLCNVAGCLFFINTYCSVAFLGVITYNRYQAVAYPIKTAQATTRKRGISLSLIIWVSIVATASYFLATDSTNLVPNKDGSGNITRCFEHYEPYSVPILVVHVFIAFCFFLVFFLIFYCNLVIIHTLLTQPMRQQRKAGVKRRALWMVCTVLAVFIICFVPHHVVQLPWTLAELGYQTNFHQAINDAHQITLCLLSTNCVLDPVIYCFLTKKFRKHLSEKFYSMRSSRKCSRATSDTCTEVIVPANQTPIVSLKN
Assay: Dose required to inhibit PAF-induced mortality by 50% in mice
Assay type: functional
Details: Mus sp.
# value in mg/kg; strip the unit string

Sample records with ID50:
COMPOUND	ID50 / mg/kg
Cc1ncccc1C(C#N)N1CCN(C(=O)CC(c2ccccc2)N2C(=O)CCC2=O)CC1 (stereo not given)	0.71
Cc1ncccc1C(C#N)N1CCN(C(=O)CC(NC(=O)N2CCCC2)c2ccccc2)CC1 (stereo not given)	0.97
Cc1ncccc1C(C#N)N1CCN(C(=O)CC(c2ccccc2)N2CCOC2=O)CC1 (stereo not given)	1
Cc1ncccc1C(C#N)N1CCN(C(=O)CC(NC(=O)c2ncccc2O)c2ccccc2)CC1 (stereo not given)	3
Cc1ncccc1C(C#N)N1CCN(C(=O)[C@H](C)NC(c2ccccc2)c2ccccc2)CC1 (stereo not given in full)	1.6
Cc1ncccc1C(C#N)N1CCN(C(=O)CC(c2ccccc2)N2CCCC2=O)CC1 (stereo not given)	0.13

# lookup: ID50 of Cc1ncccc1C(C#N)N1CCN(C(=O)CC(NC(=O)OC(C)(C)C)c2ccccc2)CC1 (stereo not given)
1.2
